assay: HepG2 cytotoxicity, primary screen, cytotoxicity control for P. falciparum antimalarial project, cell-based, ATP luminescence (AID 2303); conditions: HepG2 viability, 24-48 h, at 10 µM, stronger effect = higher value;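 also: 0% = DMSO wells and 100% = digitonin-killed cells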
Reported inhibition values are given for each entry in this list.
Express the result in % but write the number alone.

Recorded results for 4 compounds are shown here.
O=C(Nc1cccc(-c2nn3ccccc3c2-c2ccnc(Nc3ccc(Cc4ccncc4)cc3)n2)c1)c1c(F)cccc1F | 43
Fc1cccc(CNc2ncc(-c3ccsc3)c(-c3nccs3)n2)c1 | 15
N#Cc1cccc(C(=O)N2CCOC(CCN3CCC(c4ccccc4)CC3)(c3ccc(Cl)c(Cl)c3)C2)c1 (stereo not given) | 51
COc1ccc2nccc([C@@H](O)CN3CCC(NC(=O)c4cccc(-c5cc(C)no5)c4)CC3)c2c1 | 19

Request: Can you share its inhibition? I mean this compound: COc1cc(CCNCC(O)c2ccc([N+](=O)[O-])c(OCc3ccccc3)c2)cc(OC)c1OC (stereo not given)
Response: 11

====

test: antimalarial activity against Dd2 strain (AID 2302);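 also: 0% = DMSO untreated growth and 100% = chloroquine plus artemisinin killed control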; settings: P. falciparum Dd2 in RBCs, LDH growth readout, 72 h; at 2 µM; stronger effect = higher value
Overview of recorded growth inhibition for various compounds
Give the value, in units of %, as a plain number.

Below, 8 compounds whose answers are already recorded.
OC(CNCc1cccc(Oc2ccc(Cl)cc2)c1)c1cccc(C(F)(F)F)c1 (stereo not given) | 78
CC(=O)Oc1c(Br)c(C)nc(C)c1-c1ccc(Oc2ccc(OC(F)(F)F)cc2)cc1 | 97
NS(=O)(=O)c1cccc(Nc2nc(N[C@@H]3CCNC3)nc3cc[nH]c(=O)c23)c1 | 98
O=C(Nc1cccc(CN2CCCN(Cc3cccc(O)c3)CC2)c1)c1cc2ccccc2s1 | 75
Cc1[nH]c(C)c(-c2ccc(Sc3ccc(Cl)cc3)cc2)c(=O)c1Br | 97
COc1ccc2nccc([C@@H](O)CN3CCC(NC(=O)C(c4cccs4)N4CCN(c5ccc(F)cc5)CC4)CC3)c2c1 (stereo not given in full) | 45
COc1ccc(C(=O)NCCCCN2CCC(c3ccc4c(c3OC)CCCC4)CC2)cc1-c1ccc(C(F)(F)F)cc1 | 56
Nc1nc(N)c2c(ccc3c2cnn3Cc2cccnc2)n1 | 96

Request: Look up growth inhibition for this compound: CC(C)(CNC(=O)C1CCN(CCOCc2ccccc2)CC1)c1nc(-c2ccc(Cl)c(O)c2)c(-c2ccncc2)[nH]1
Response: 18

Request: Record: c1ccc(C23N=C(Nc4nc5ccccc5[nH]4)NC2(c2ccccc2)NC(Nc2nc4ccccc4[nH]2)=N3)cc1 (stereo not given)
Response: 89

Request: Now consider N#Cc1cccc(C(=O)Nc2cccc(-c3ccc(CN4CCC(O)CC4)cc3)c2)c1 and answer again.
Response: 2

Request: Next compound: CCCCCOc1ccc(N2C(N)=NC(N)=NC2(C)C)cc1
Response: -4

Request: # iterate: Cc1nn(C)cc1C(C)Nc1nncc(-c2ccc(C(F)(F)F)cc2)n1 (stereo not given)
Response: 99

Request: Also check COc1ccc(-n2cc(C(=O)c3cc(Br)ccc3O)cc(C#N)c2=O)cc1Cl
Response: 23

Request: Now this one: COc1ccc(C2NCCc3c2[nH]c2ccccc32)cc1CN1CCN(c2ccc(F)cc2)CC1 (stereo not given)
Response: 56

====

assay: antimalarial activity against Dd2 strain (AID 2302);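 also: 0% = DMSO untreated growth and 100% = chloroquine plus artemisinin killed control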; conditions: P. falciparum Dd2 in RBCs, LDH growth readout, 72 h; at 2 µM; stronger effect = higher value
Property label: growth inhibition (%)
Numeric only. Scale: %

CCCCNc1ccc(C(=O)NC2CCN(C[C@H](O)c3ccnc4ccc(OC)cc34)CC2)cc1 | 64

Request: Return reported growth inhibition; argument: Cn1nc(-c2ccc(NC(=O)Nc3ccc4ccccc4c3)c(F)c2)c2cnc(NCCN3CCOCC3)nc21
Response: 3

Request: One more compound: Nc1cc(C(F)(F)F)ccc1Cl
Response: -1

Request: Would you kindly repeat that for CNC(=O)c1ccccc1Nc1nc(Nc2ccc(C(=O)O)cc2)ncc1Cl ?
Response: 92

Request: Next compound up: COc1ccc(CN2CCC(C(=O)Nc3cccc(-c4cccc(Cl)c4)c3)CC2)cc1O
Response: 0

Request: What do you have for COc1cc(Nc2nccc(-c3c(-c4cccc(NC(=O)c5c(F)cccc5F)c4)nn4ccccc34)n2)cc(OC)c1OC ?
Response: 98

Request: Next: COc1cccc([C@@H](CC(=O)Nc2cc(C(F)(F)F)ccc2OC)Nc2ccc(C#N)c3ccccc23)c1
Response: 53

Request: Also, O=C(Nc1cccc(OC2CCN(Cc3ccccc3)CC2)c1)c1ccc(Cl)c(Cl)c1 please.
Response: 45

Request: And then Oc1ccccc1CNCc1ccc(-c2cnc(N3CCCC(c4ccccc4)C3)nc2)cc1 (stereo not given) , what is it?
Response: 84

Request: Next compound: COc1ccccc1CN1CCC(CNC(=O)c2cc(-c3cccc(C(F)(F)F)c3)cs2)C1 (stereo not given)
Response: 1

// data source = PubChem BioAssay
